test system: #3_18 (group 7) (DNA, aptamer) ATACCAGCTTATTCAATTAGCATGGTGCTGAGGCTTGATCTGGAGGTCGTGAACGAAAATTGGTCGTTTAGTTGGCTCGTAGATAGTAAGTGCAATCT; assay: fluorescent aptamer release from capture-oligo magnetic beads; conditions: 100 mM NaCl, 5 mM KCl, 2 mM MgCl2, 1 mM CaCl2; 20 mM Tris-HCl pH 7.6, 21 °C; capture oligo i-ODN2Sp; 1 mM compound; threshold 1 pmol eluted
measurement_type: binding

NC(=O)NS(=O)(=O)c1ccc(N)cc1; no
NC[C@H]1O[C@H](O[C@H]2[C@H](O)[C@@H](O[C@H]3O[C@H](CO)[C@@H](O)[C@H](N)[C@H]3O)[C@H](N)C[C@@H]2N)[C@H](O)[C@@H](O)[C@@H]1O; yes
Cc1cc(NS(=O)(=O)c2ccc(N)cc2)no1; no
CC(C)NCC(O)c1ccc(NS(C)(=O)=O)cc1 (stereo not shown); no

---

tested on: #13_83 (group 3 representative) (DNA, aptamer) ATACCAGCTTATTCAATTGGGGAGATCTTGAGGCTCGATCGATAGTAGCTGTGACAGTCTACGTTTTATGGTATGCGGGTAGATAGTAAGTGCAATCT; experiment: fluorescent aptamer release from capture-oligo magnetic beads; settings: 100 mM NaCl, 5 mM KCl, 2 mM MgCl2, 1 mM CaCl2; 20 mM Tris-HCl pH 7.6, 21 °C; capture oligo i-ODN2Sp; 1 mM compound; threshold 1 pmol eluted
measurement_type: binding

NC(=O)NS(=O)(=O)c1ccc(N)cc1; no
NC[C@H]1O[C@H](O[C@H]2[C@H](O)[C@@H](O[C@H]3O[C@H](CO)[C@@H](O)[C@H](N)[C@H]3O)[C@H](N)C[C@@H]2N)[C@H](O)[C@@H](O)[C@@H]1O; no
Cc1cc(NS(=O)(=O)c2ccc(N)cc2)no1; no
CC(C)NCC(O)c1ccc(NS(C)(=O)=O)cc1 (stereo not shown); no

Ref: paper PMC3544269
